For each record, write down the corresponding IC50.
# Measured On: catalytic domain of human Bub1 (amino acids 704-1085) (Homo sapiens, UniProt O43683)
# Construct: catalytic domain of human Bub1 (amino acids 704-1085); His6 (N); made in house; host or cells: Hi5 insect cells
# Sequence (O43683 704-1085): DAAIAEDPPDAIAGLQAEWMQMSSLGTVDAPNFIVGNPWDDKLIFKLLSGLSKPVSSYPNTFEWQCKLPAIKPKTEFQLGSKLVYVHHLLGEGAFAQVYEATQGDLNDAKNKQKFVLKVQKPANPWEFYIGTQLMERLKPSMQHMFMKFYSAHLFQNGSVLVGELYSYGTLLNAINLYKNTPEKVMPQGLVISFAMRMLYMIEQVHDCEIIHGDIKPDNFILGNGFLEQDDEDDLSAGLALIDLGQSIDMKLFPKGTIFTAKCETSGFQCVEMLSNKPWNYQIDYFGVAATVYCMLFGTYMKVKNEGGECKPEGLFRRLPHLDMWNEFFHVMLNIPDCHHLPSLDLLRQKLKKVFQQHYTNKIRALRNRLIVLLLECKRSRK
# Measurement Description: Bub1 kinase assay (TR-FRET)
# Assay type: biochemical
# Experimental Parameters: TR-FRET, recombinant catalytic domain of human Bub1, ATP 10 μM, peptide substrate 1 μM; median value; read-out: Biological Assay 1: Bub1 kinase assay median IC50
Just the number in nM, nothing appended.

Request: Returns the measured IC50 for the input molecule. Input: `CCOc1cc(F)c(Cn2nc(-c3cc(Nc4ncncn4)ccn3)c3ccccc32)c(F)c1`
Response: 21

Request: So what does the record say about IC50 for `CCOc1cc(F)c(Cn2nc(-c3cc(Nc4ccncn4)ncn3)c3ccccc32)c(F)c1` ?
Response: 25

Request: Quick one: IC50 for `CCOc1cc(F)c(Cn2nc(-c3cc(Nc4ccncn4)ccn3)c3ccccc32)c(F)c1` ?
Response: 14

Request: Name the recorded IC50 for `CCOc1cc(F)c(Cn2nc(-c3ncc(OC)c(Nc4ccccc4C(N)=O)n3)c3ccccc32)c(F)c1` .
Response: 920

Request: Look up IC50 for this molecule: `COc1ccc(Cn2nc(-c3ncc(OC)c(Nc4ccc(F)cc4)n3)c3ccccc32)cc1`
Response: 8800

Request: # query: IC50 of entry `CCOc1cc(F)c(Cn2nc(-c3ncc(OC)c(Nc4cncc(C(=O)NC)n4)n3)c3ccccc32)c(F)c1`
Response: 660

Request: # IC50 lookup, item `CCCc1ccc(Cn2nc(-c3ncc(OC)c(Nc4ccncn4)n3)c3ccccc32)cc1`
Response: 44

Request: # input molecule: `CCOc1cc(F)c(Cn2nc(-c3ncc(OC)c(Nc4cn[nH]c4)n3)c3ccccc32)c(F)c1` ; wanted: its IC50
Response: 4.7

Request: Tell me the measured IC50 of `CCOc1cc(F)c(Cn2nc(-c3ncc(OC)c(Nc4ccc(F)cc4C(N)=O)n3)c3ccccc32)c(F)c1` , please.
Response: 110

Request: // query IC50 value for entry `COc1ccc(Cn2nc(-c3ncc(OC)c(Nc4cccnc4)n3)c3ccccc32)cc1`
Response: 2600

Request: Looking for the measured IC50 of `CCOc1cc(F)c(Cn2nc(-c3ncc(OC)c(Nc4ccncn4)n3)c3ccccc32)c(F)c1` , can you help?
Response: 22

Request: Param item = `CCOc1cc(F)c(Cn2nc(-c3cc(Nc4cnsc4)ccn3)c3ccccc32)c(F)c1` ; retrieve measured IC50.
Response: 720

Request: I have this molecule here, `CCOc1cc(F)c(Cn2nc(-c3cc(Nc4ncnn4CC)ccn3)c3ccccc32)c(F)c1` , and I need its recorded IC50.
Response: 120

Request: Fill blank: measured IC50 of the molecule `CCOc1cc(F)c(Cn2nc(-c3ncc(OC)c(Nc4ccccc4)n3)c3ccccc32)c(F)c1` is ____.
Response: 1500

Request: Which IC50 is listed for `COc1ccc(Cn2nc(-c3ncc(OC)c(Nc4ccccc4)n3)c3ccccc32)cc1` ?
Response: 3700

Request: Which value of IC50 has been reported for `CCOc1cc(F)c(Cn2nc(-c3ncc(OC)c(Nc4ccnnc4)n3)c3ccccc32)c(F)c1` in the records?
Response: 11

Reference source: patent US20160046610A1
